tested on: Aβ40 in conditioned medium of cells stably expressing Amyloid Precursor Protein (APP); assay: In vitro BACE cell-based assay (Aβ40 in conditioned medium, sandwich ELISA); details: Homo sapiens, HEK293, HEK cell-based assay, IC50's in uM; read-out: HEK cell assay;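 also: compounds added as a dilution series, secreted peptide quantified by europium time-resolved fluorescence readout, potency fitted from percent of control versus compound concentration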
Quick list: IC50 per entry.
Numeric answer only, unit µM assumed.

A selection of reference data follows.
[[record]]
compound = "C#Cc1cc(F)cc(C[C@H](NC(=O)[C@@H](C)OC)[C@H](O)CN[C@H]2CC3(CCC3)Oc3ncc(CC(C)(C)C)cc32)c1 [Example 834]"
assayed_target = "Aβ40 in conditioned medium of cells stably expressing Amyloid Precursor Protein (APP)"
measured_quantity = "IC50"
reading_unit = "µM"
observed_value = 0.011

[[record]]
compound = "COCC(=O)N[C@@H](Cc1cccc(-c2ncco2)c1)[C@H](O)CN[C@H]1CC2(CCC2)Oc2ncc(CC(C)C)cc21 [compound 804]"
assayed_target = "Aβ40 in conditioned medium of cells stably expressing Amyloid Precursor Protein (APP)"
measured_quantity = "IC50"
reading_unit = "µM"
observed_value = 0.03

[[record]]
compound = "C#Cc1cnc2c(c1)[C@@H](NC[C@@H](O)[C@H](Cc1cc(F)cc(-c3nccs3)c1)NC(=O)[C@@H](C)OC)CC1(CCC1)O2 [compound 784]"
assayed_target = "Aβ40 in conditioned medium of cells stably expressing Amyloid Precursor Protein (APP)"
measured_quantity = "IC50"
reading_unit = "µM"
observed_value = 0.864

[[record]]
compound = "COC(OC)C(=O)N[C@@H](Cc1cccc(-c2nccs2)c1)[C@H](O)CN[C@H]1CC2(CCC2)Oc2ncc(CC(C)C)cc21 [Example 816]"
assayed_target = "Aβ40 in conditioned medium of cells stably expressing Amyloid Precursor Protein (APP)"
measured_quantity = "IC50"
reading_unit = "µM"
observed_value = 0.024


For the compound C#Cc1cnc2c(c1)[C@@H](NC[C@@H](O)[C@H](Cc1cc(F)cc(-c3nccs3)c1)NC(=O)COC)CC1(CCC1)O2 [compound 766] , what IC50 is on record? 0.272

For the compound CO[C@H](C)C(=O)N[C@@H](Cc1cc(F)cc(Cl)c1)[C@H](O)CN[C@H]1CC2(CCC2)Oc2ncc(CC(C)(F)F)cc21 [compound 820] , what IC50 is on record? 0.021

----------
test: Microsomal stability assay, rat liver microsomes; details: rat liver microsomal data;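 also: rat liver microsomes (0.25 mg/mL) with about 1 µM compound plus 1 mM NADPH, pH 7.4, 37 °C for 30 min, parent left measured by LC-MS/MS against 0 min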
measured.quantity: RLM (µL/min/mg)
Numeric answer only, unit µL/min/mg assumed.

A selection of reference data follows.
[[record]]
molecule = "COCC(=O)N[C@@H](Cc1cc(F)cc(-c2nccs2)c1)[C@H](O)CN[C@H]1CC2(CCC2)Oc2ccc(CC(C)C)cc21 [compound 771]"
measured_quantity = "RLM"
observed_value = 201

[[record]]
molecule = "COCC(=O)N[C@@H](Cc1cc(F)cc(F)c1)[C@H](O)CN[C@H]1CC2(CCC2)Oc2c(Br)cc(CC(C)(C)C)cc21 [compound 464]"
measured_quantity = "RLM"
observed_value = 364


For the molecule CO[C@H](C)C(=O)N[C@@H](Cc1ccc2c(c1)OCO2)[C@H](O)CN[C@H]1CC2(CCC2)Oc2c1cc(CC(C)(C)C)nc2N(C)C [compound 444] , what RLM is on record? 662

For the molecule COCC(=O)N[C@@H](Cc1cccc(F)c1)[C@H](O)CN[C@H]1CC2(CCC2)Oc2c1cc(CC(C)(C)C)nc2-n1ccnc1 [Example 504] , what RLM is on record? 87

----------
test: Microsomal stability assay, human liver microsomes; conditions: human liver microsomal data
measured.quantity: HLM

[[record]]
line_notation = "COCC(=O)N[C@@H](Cc1cccc(F)c1)[C@H](O)CN[C@H]1CC2(CCC2)Oc2c1cc(CC(C)(C)C)cc2-n1ccnc1"
measured_quantity = "HLM"
observed_value = "51.5 µL/min/mg"

[[record]]
line_notation = "COCC(=O)N[C@@H](Cc1cc(F)cc(F)c1)[C@H](O)CN[C@H]1CC2(CCC2)Oc2c(-c3ccncc3)cc(C3CC3)cc21"
measured_quantity = "HLM"
observed_value = "73 µL/min/mg"


Okay, now this compound:
For the compound COCC(=O)N[C@@H](Cc1cccc(F)c1)[C@H](O)CN[C@H]1CC2(CCC2)Oc2c(-c3ccncc3)cc(Cl)cc21 , what HLM is on record? 338 µL/min/mg

----------
assay: Microsomal stability assay, human liver microsomes; conditions: human liver microsomes;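 also: pooled human liver microsomes at 0.25 mg/mL with 1 µM compound and NADPH at 37 °C, pH 7.4, for 30 min, unchanged parent quantified by LC-MS/MS against the 0 min sample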
measured.quantity: HLM
The reply should read as a number followed by its unit.

A selection of reference data follows.
[[record]]
line_notation = "COCC(=O)N[C@@H](Cc1cccc(F)c1)[C@H](O)CN[C@H]1CC2(CCC2)Oc2c1cc(CC(C)(C)OC)cc2-n1ccnc1.O=C(O)C(F)(F)F"
measured_quantity = "HLM"
observed_value = "35 µL/min/mg"

[[record]]
line_notation = "COCC(=O)N[C@@H](Cc1ccc(F)cc1)[C@H](O)CN[C@H]1CC2(CCC2)Oc2c1cc(CC(C)(C)C)nc2Nc1ccccc1"
measured_quantity = "HLM"
observed_value = "176 µL/min/mg"

[[record]]
line_notation = "COCC(=O)N[C@@H](Cc1ccc(F)cc1)[C@H](O)CN[C@H]1CC(C)(C)Oc2c1cc(CC(C)C)c1c2OCO1"
measured_quantity = "HLM"
observed_value = "125 µL/min/mg"

[[record]]
line_notation = "CO[C@H](C)C(=O)N[C@@H](Cc1ccc(F)c(F)c1)[C@H](O)CN[C@H]1CC(C)(C)Oc2ncc(CC(C)(C)C)cc21"
measured_quantity = "HLM"
observed_value = "543 µL/min/mg"

[[record]]
line_notation = "COCC(=O)N[C@@H](Cc1cccc(F)c1)[C@H](O)CN[C@H]1CC2(CCC2)Oc2c(-c3ccnc(Cl)c3)cc(CC(C)(C)C)cc21"
measured_quantity = "HLM"
observed_value = "706 µL/min/mg"


Okay, now this compound:
For the compound CO[C@H](C)C(=O)N[C@@H](Cc1cc(F)cc(-c2nccs2)c1)[C@H](O)CN[C@H]1CC2(CCC2)Oc2c1cc(CC(C)C)nc2Cl , what HLM is on record? 166 µL/min/mg

----------
molecular target: Beta Secretase enzyme (BACE) (Homo sapiens); experiment: In vitro enzymatic BACE FRET (fluorescence resonance energy transfer) assay; type: biochemical; settings: BACE enzyme assay IC50; read-out: BACE1 FRET assay
measured.quantity: IC50 (nM)
Numeric answer only, unit nM assumed.

A selection of reference data follows.
[[record]]
line_notation = "COCC(=O)N[C@@H](Cc1cc(F)cc(-c2nccs2)c1)[C@H](O)CN[C@H]1CC2(CCC2)Oc2ncc(CC(C)(C)F)cc21"
observed_value = 6

[[record]]
line_notation = "COCC(=O)N[C@@H](Cc1cc(F)cc(F)c1)[C@H](O)CN[C@H]1CC(C)(C)Oc2c1cc(CC(C)C)c1c2OCO1"
observed_value = 13


Okay, now this compound:
For the compound CC(=O)N[C@@H](Cc1cc(F)cc(F)c1)[C@H](O)CN[C@H]1CC2(CCC2)Oc2c1cc(C1CC1)cc2-n1ccnc1 , what IC50 is on record? 32

----------
Quick list: pIC50 per entry.
molecular target: Beta Secretase enzyme (BACE) (Homo sapiens, UniProt P56817); test: In vitro enzymatic BACE FRET (fluorescence resonance energy transfer) assay; assay type: biochemical; settings: Table 2; read-out: BACE1 FRET assay;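 also: fluorescence read after 1 h with 50 nM quenched peptide substrate spanning the BACE cleavage site, in pH 4.2 acetate buffer containing 10% DMSO and nonionic detergent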
Sequence (P56817 46-501): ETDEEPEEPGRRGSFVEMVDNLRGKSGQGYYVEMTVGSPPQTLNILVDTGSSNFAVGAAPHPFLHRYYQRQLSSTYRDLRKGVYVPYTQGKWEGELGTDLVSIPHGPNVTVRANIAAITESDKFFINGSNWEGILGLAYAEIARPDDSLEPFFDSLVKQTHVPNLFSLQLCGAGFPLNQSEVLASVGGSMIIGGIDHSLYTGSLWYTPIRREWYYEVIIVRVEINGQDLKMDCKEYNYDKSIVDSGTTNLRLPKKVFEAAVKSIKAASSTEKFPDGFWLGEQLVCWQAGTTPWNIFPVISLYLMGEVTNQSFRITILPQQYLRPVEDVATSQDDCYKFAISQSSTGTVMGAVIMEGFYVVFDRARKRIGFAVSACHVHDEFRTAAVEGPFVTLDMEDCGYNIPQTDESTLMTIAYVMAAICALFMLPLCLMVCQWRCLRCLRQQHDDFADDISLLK
Lab note — pIC50 values are minus log10 of concentrations in M.

A selection of reference data follows.
[[record]]
line_notation = "COCC(=O)N[C@@H](C[C@@H]1CCOC1)[C@H](O)CN[C@H]1CC2(CCC2)Oc2ncc(CC(C)(C)C)cc21"
assayed_target = "Beta Secretase enzyme (BACE) (Homo sapiens, UniProt P56817)"
observed_value = 6.36

[[record]]
line_notation = "COCC(=O)N[C@@H](Cc1ccc2c(c1)OCO2)[C@H]1CN([C@H]2CC3(CCC3)Oc3ncc([C@H](F)C(C)(C)C)cc32)C(=O)O1"
assayed_target = "Beta Secretase enzyme (BACE) (Homo sapiens, UniProt P56817)"
observed_value = 5.20

[[record]]
line_notation = "CC(=O)C(C)(C)C(=O)N[C@@H](Cc1cccc(F)c1)[C@H](O)CN[C@H]1CC2(CCC2)Oc2ncc(CC(C)(C)C)cc21"
assayed_target = "Beta Secretase enzyme (BACE) (Homo sapiens, UniProt P56817)"
observed_value = 7.20

[[record]]
line_notation = "CO[C@H](C)C(=O)N[C@@H](Cc1cc(F)cc(F)c1)[C@H](O)CN[C@H]1CC2(CCC2)Oc2c1cc(CC(C)C)cc2-n1ccnc1"
assayed_target = "Beta Secretase enzyme (BACE) (Homo sapiens, UniProt P56817)"
observed_value = 7.59

[[record]]
line_notation = "COCC(=O)N[C@@H](Cc1ccc2c(c1)OCO2)[C@@H](CN[C@H]1CC2(CCC2)Oc2ncc([C@H](F)C(C)(C)C)cc21)OC"
assayed_target = "Beta Secretase enzyme (BACE) (Homo sapiens, UniProt P56817)"
observed_value = 5.58

[[record]]
line_notation = "CC(=O)N[C@@H](C[C@H]1CCOC1)[C@H](O)CN[C@H]1CC2(CCC2)Oc2ncc(CC(C)(C)C)cc21"
assayed_target = "Beta Secretase enzyme (BACE) (Homo sapiens, UniProt P56817)"
observed_value = 6.86

[[record]]
line_notation = "COCC(=O)N[C@@H](Cc1ccc(F)cc1)[C@H](O)CN[C@H]1CC2(CCC2)Oc2c1cc(CC(C)(C)C)nc2-c1nccs1"
assayed_target = "Beta Secretase enzyme (BACE) (Homo sapiens, UniProt P56817)"
observed_value = 7.72

[[record]]
line_notation = "CO[C@H](C)C(=O)N[C@@H](Cc1ccc2c(c1)OCO2)[C@H](O)CN[C@H]1CC2(CCC2)Oc2c1cc(CC(C)(C)C)nc2N(C)C"
assayed_target = "Beta Secretase enzyme (BACE) (Homo sapiens, UniProt P56817)"
observed_value = 6.53


For the compound C[C@@H](F)C(=O)N[C@@H](Cc1ccc2c(c1)OCO2)[C@H](O)CN[C@H]1CC2(CCC2)Oc2ncc(CC(C)(C)C)cc21 , what pIC50 is on record? 7.54

For the compound COCC(=O)N[C@@H](Cc1cc(F)cc(F)c1)[C@H](O)CN[C@H]1CC2(CCC2)Oc2c(-c3cnc[nH]3)cc(CC(C)C)cc21 , what pIC50 is on record? 7.64

For the compound CC(=O)N[C@@H](Cc1cc(F)cc(F)c1)[C@H](O)CN[C@H]1CC2(CCC2)Oc2c1cc(CC(C)(C)C)nc2-c1cncs1 , what pIC50 is on record? 8.40

For the compound CO[C@H](C)C(=O)N[C@@H](Cc1ccc2c(c1)OCO2)[C@H](O)CN[C@H]1CC2(CCC2)Cc2sc(CC(C)(C)C)cc21 , what pIC50 is on record? 7.31
